Data provenance: the supplement of paper PMC6757056

Reported values of normalized RNA/DNA level without ligand (log10) for individual entries
B1: library; a variant is named by its letters at N, in order (parent)
chain: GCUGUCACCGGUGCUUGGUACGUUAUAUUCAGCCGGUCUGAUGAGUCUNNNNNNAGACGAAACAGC

variants of: B1; assay: normalized RNA/DNA level without ligand (relative to sTRSVctl = 100) (log10 (% of sTRSVctl)); HEK293T overexpressing SLC46A1; higher = less ribozyme self-cleavage, higher mRNA level; details: without (6R,S)-folinic acid; ligand present: no
measurement_label: normalized RNA/DNA level without ligand (log10)

- variant_label: "CGGGGA"
  reading: 2.1
- variant_label: "CGGACC"
  reading: 2.07
- variant_label: "AGAUGC"
  reading: 2.02
- variant_label: "UAGUGC"
  reading: 1.95
- variant_label: "UAGGAC"
  reading: 1.98
- variant_label: "AUUAUA"
  reading: 1.96
- variant_label: "CCUUUC"
  reading: 2.06
- variant_label: "ACGUAU"
  reading: 1.94
- variant_label: "UUAGCG"
  reading: 1.9
- variant_label: "UGUCGC"
  reading: 1.97
- variant_label: "ACCCUC"
  reading: 2.03
